molecular target: Rat brain protein farnesyltransferase (Rattus norvegicus, UniProt Q02293+Q04631); construct: Rat brain protein farnesyltransferase activity is measured; from tissue; host or cells: rat brain; test: in vitro inhibition of protein farnesyltransferase (Amersham scintillation proximity assay, biotin-K Ras B fragment substrate); format: biochemical; conditions: 1 × 10^-7 M; protein farnesyltransferase; compared to uninhibited control; read-out: % inhibition at 1 × 10^-7 M
measured-metric: inhibition at 0.1 µM

compound	measured-metric	result
CSCC[C@H](NC(=O)C1=C(c2ccccc2C)CN(C(=O)OCCCC2CCCCC2)CC1)C(=O)O [Example 1]	inhibition at 0.1 µM	100%
CSCC[C@H](NC(=O)C1=C(c2ccccc2C)CN(C(=O)N(Cc2ccccc2)Cc2cncs2)CC1)C(=O)O [Example 3]	inhibition at 0.1 µM	100%
CSCC[C@H](NC(=O)C1=C(c2ccccc2C)CN(CCCc2ccccc2)CC1)C(=O)O [Example 4]	inhibition at 0.1 µM	55%
CSCC[C@H](NC(=O)C1=C(c2ccccc2C)CN(C(=O)C=Cc2cncs2)CC1)C(=O)O [Example 2]	inhibition at 0.1 µM	43%
